// reported IC50 for each item listed
# Assayed system: Pancreatic triacylglycerol lipase (Sus scrofa, UniProt P00591)
# Sequence (P00591 whole entry): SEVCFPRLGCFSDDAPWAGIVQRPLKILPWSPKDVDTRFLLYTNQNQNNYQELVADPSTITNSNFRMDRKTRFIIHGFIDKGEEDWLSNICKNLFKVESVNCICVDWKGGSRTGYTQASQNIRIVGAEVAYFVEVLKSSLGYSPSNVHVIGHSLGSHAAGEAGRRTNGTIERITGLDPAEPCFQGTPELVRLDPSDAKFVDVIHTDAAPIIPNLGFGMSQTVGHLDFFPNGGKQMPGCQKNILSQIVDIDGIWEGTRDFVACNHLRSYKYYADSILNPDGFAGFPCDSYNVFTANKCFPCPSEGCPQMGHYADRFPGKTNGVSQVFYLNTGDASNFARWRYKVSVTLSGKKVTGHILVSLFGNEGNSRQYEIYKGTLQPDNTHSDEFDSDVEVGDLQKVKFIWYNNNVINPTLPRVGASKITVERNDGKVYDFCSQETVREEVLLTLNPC
# Protocol: Inhibition of porcine pancreatic lipase using p-nitrophenyl butyrate as substrate pretreated for 15 mins followed by substrate addition measured after 15 mins by spectrophotometric method
Observable: IC50 (µM)

[[record]]
mol = "O=C(CCc1ccc(O)cc1)c1c(O)cc(O)c(Cc2c(O)cc(O)c(C(=O)CCc3ccc(O)cc3)c2O)c1O"
observable = "IC50"
unit_descriptor = "µM"
relation_operator = "="
result_value = 5.2

[[record]]
mol = "O=C(CCc1ccc(O)cc1)c1c(O)cc(O)c(Cc2c(O)cc(O[C@@H]3O[C@H](CO)[C@@H](O)[C@H](O)[C@H]3O)c(C(=O)CCc3ccc(O)cc3)c2O)c1O"
observable = "IC50"
unit_descriptor = "µM"
relation_operator = "="
result_value = 14.7

[[record]]
mol = "O=C(CCc1ccc(O)cc1)c1c(O)cc(O)cc1O[C@@H]1O[C@H](CO)[C@@H](O)[C@H](O)[C@H]1O"
observable = "IC50"
unit_descriptor = "µM"
relation_operator = ">"
result_value = 300

[[record]]
mol = "O=C(CCc1ccc(O)cc1)c1c(O)cc(O)cc1O"
observable = "IC50"
unit_descriptor = "µM"
relation_operator = "="
result_value = 50.4

[[record]]
mol = "O=C(CCc1ccc(O)cc1)c1c(O[C@@H]2O[C@H](CO)[C@@H](O)[C@H](O)[C@H]2O)cc(O)c(Cc2c(O)cc(O[C@@H]3O[C@H](CO)[C@@H](O)[C@H](O)[C@H]3O)c(C(=O)CCc3ccc(O)cc3)c2O)c1O"
observable = "IC50"
unit_descriptor = "µM"
relation_operator = "="
result_value = 257

